Provide the reported R.A. (relative activity) of each item.
# system tested: cardiac beta-1-receptors (Felis catus, UniProt Q9TST6)
# Construct: increases the pulse rate of narcotized cats (weighing 2-4 kg) by an average of 40%; from tissue; host or cells: heart of living narcotized cats (in vivo, endogenous receptor)
# Sequence (Q9TST6 whole entry): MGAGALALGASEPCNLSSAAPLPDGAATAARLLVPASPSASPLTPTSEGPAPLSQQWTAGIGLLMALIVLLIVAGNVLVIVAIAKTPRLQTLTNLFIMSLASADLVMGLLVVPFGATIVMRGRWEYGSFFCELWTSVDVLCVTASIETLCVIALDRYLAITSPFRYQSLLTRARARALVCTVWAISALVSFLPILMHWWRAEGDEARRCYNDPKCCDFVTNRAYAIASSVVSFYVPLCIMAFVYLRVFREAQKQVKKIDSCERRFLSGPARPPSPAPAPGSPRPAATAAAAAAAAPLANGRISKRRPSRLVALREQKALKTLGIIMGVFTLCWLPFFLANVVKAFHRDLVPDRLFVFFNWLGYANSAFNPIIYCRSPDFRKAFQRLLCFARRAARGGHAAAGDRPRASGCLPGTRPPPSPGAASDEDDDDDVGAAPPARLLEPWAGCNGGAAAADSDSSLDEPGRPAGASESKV
# experiment description: Beta-sympatholytic action: inhibition of isoproterenol-induced tachycardia in narcotized cats
# Format: in vivo
# run conditions: cats; Propranolol = 1.00
# Procedure: The beta-sympatholytic action of the compounds was tested on cats. […] The following test methods were used: Beta-sympatholytic agents inhibit the tachycardia. ^1 Inhibition of isoproterenolinduced tachycardia in cats under hexobarbital narcosis. Compound administered intravenously.
One number for each entry.

Cc1nnc(/C=C/c2ccccc2OCC(O)CNC2CC2)s1 (stereo not shown); 11.75

Here are 3 compounds. What values of R.A. (relative activity) were reported for them?
1. Cc1nnc(/C=C/c2ccccc2OCC(O)CNC(C)C)s1 (stereo not shown)
2. Cc1nnc(/C=C/c2ccccc2OCC(O)CNC(C)(C)C)s1 (stereo not shown)
3. C#CC(C)NCC(O)COc1ccccc1/C=C/c1nnc(C)s1 (stereo not shown)

[14.10, 25.22, 12.70]

###

Provide the reported Therapeutic range relative of each item.
# System: cardiac beta-1-receptors
# run conditions: mouse, in vivo
Numbers only.

Example cases with answers are listed next.
C#CC(C)NCC(O)COc1ccccc1/C=C/c1nnc(C)s1 (stereo not shown); 30.68
Cc1nnc(/C=C/c2ccccc2OCC(O)CNC2CC2)s1 (stereo not shown); 7.55
Cc1nnc(/C=C/c2ccccc2OCC(O)CNC(C)(C)C)s1 (stereo not shown); 13.73

Entry Cc1nnc(/C=C/c2ccccc2OCC(O)CNC(C)C)s1 (stereo not shown) , Therapeutic range relative reported as 10.84

###

Provide the reported LD50 of each item.
# experiment description: in vivo
# run conditions: mouse, read-out: Acute toxicity LD50
Give bare numbers, in mg/kg.

Example cases with answers are listed next.
Cc1nnc(/C=C/c2ccccc2OCC(O)CNC2CC2)s1 (stereo not drawn); 69.4
Cc1nnc(/C=C/c2ccccc2OCC(O)CNC(C)C)s1 (stereo not drawn); 83

Could you now look at the following compound, please?
Entry C#CC(C)NCC(O)COc1ccccc1/C=C/c1nnc(C)s1 (stereo not drawn) , LD50 reported as 261
